Experiment: Gelling of water-immiscible cosmetic liquids in 96 well glass micro-titre plate
Format: physicochemical
Design: key: gel; g4: gel after overnight (18 hrs) storage at 4° C.; g22: gel after overnight (18 hrs) storage at 22° C.; sg: soft gel; sg22: soft gel after overnight (18 hrs) storage at 22° C.; solution; *: the test at 4° C. was not carried out
Details: 5% cellobiose ester in ISA; 150° C. 2.5 hours, cooled to ambient
valueKind: gelling of ISA

The examples below pair each entry with its known result.
CCCCCCCCCCCCCCCC(=O)OC1OC(COC(=O)CCCCCCCC)C(OC2OC(COC(=O)CCCCCCCC)C(OC(=O)CCCCCCCC)C(OC(=O)CCCCCCCC)C2OC(=O)CCCCCCCC)C(OC(=O)CCCCCCCC)C1OC(=O)CCCCCCCC (mixture of isomers) [Ex 1.8] : g22
CCCCCCCCCCCCCCCC(=O)OC1OC(COC(=O)CCCCCCCCC)C(OC2OC(COC(=O)CCCCCCCCC)C(OC(=O)CCCCCCCCC)C(OC(=O)CCCCCCCCC)C2OC(=O)CCCCCCCCC)C(OC(=O)CCCCCCCCC)C1OC(=O)CCCCCCCCC (mixture of isomers) [Ex 2.12] : g22
CCCCCCCCCC(=O)OCC1OC(OC2C(COC(=O)CCCCCCCCC)OC(OC(=O)c3ccccc3)C(OC(=O)CCCCCCCCC)C2OC(=O)CCCCCCCCC)C(OC(=O)CCCCCCCCC)C(OC(=O)CCCCCCCCC)C1OC(=O)CCCCCCCCC (mixture of isomers) [Ex 2.1] : gel
CCCCCCCCCC(=O)OCC1OC(OC2C(COC(=O)CCCCCCCCC)OC(OC(C)=O)C(OC(=O)CCCCCCCCC)C2OC(=O)CCCCCCCCC)C(OC(=O)CCCCCCCCC)C(OC(=O)CCCCCCCCC)C1OC(=O)CCCCCCCCC (mixture of isomers) [Ex 2.4] : gel
CCCCCCCCC(=O)OCC1OC(OC2C(COC(=O)CCCCCCCC)OC(OC(=O)CCCC)C(OC(=O)CCCCCCCC)C2OC(=O)CCCCCCCC)C(OC(=O)CCCCCCCC)C(OC(=O)CCCCCCCC)C1OC(=O)CCCCCCCC (mixture of isomers) : sg22

--- query ---
**Q:** Value lookup for gelling of ISA; key = CCCCCCCCC(=O)OCC1OC(OC2C(COC(=O)CCCCCCCC)OC(OC(=O)c3ccccc3)C(OC(=O)CCCCCCCC)C2OC(=O)CCCCCCCC)C(OC(=O)CCCCCCCC)C(OC(=O)CCCCCCCC)C1OC(=O)CCCCCCCC (mixture of isomers) [Ex 1.1]
**A:** g22

###

Assay: DSC of gels: fibre dissolution temperature (FDT) and solubility of structurant
Assay type: physicochemical
Details: gel heated at 5 K/min in DSC; peak temperature of the highest peak
FDT values, listed per item
Report only the number, with the unit °C understood.

The examples below pair each entry with its known result.
CCCCCCCCC(=O)OCC1OC(OC2C(COC(=O)CCCCCCCC)OC(OC(C)=O)C(OC(=O)CCCCCCCC)C2OC(=O)CCCCCCCC)C(OC(=O)CCCCCCCC)C(OC(=O)CCCCCCCC)C1OC(=O)CCCCCCCC (mixture of isomers) [Ex 1.6] : 70
CCCCCCCCC(=O)OCC1OC(OC2C(COC(=O)CCCCCCCC)OC(OC(C)=O)C(OC(=O)CCCCCCCC)C2OC(=O)CCCCCCCC)C(OC(=O)CCCCCCCC)C(OC(=O)CCCCCCCC)C1OC(=O)CCCCCCCC (mixture of isomers) [Ex 1.7] : 72
CCCCCCCCC(=O)OC[C@H]1O[C@@H](O[C@H]2[C@H](OC(=O)CCCCCCCC)[C@@H](OC(=O)CCCCCCCC)C(OC(=O)CCCCCCCC)O[C@@H]2COC(=O)CCCCCCCC)[C@H](OC(=O)CCCCCCCC)[C@@H](OC(=O)CCCCCCCC)[C@@H]1OC(=O)CCCCCCCC (stereo partly drawn) [REF 2, cellobiose octanonanoate] : 47
CCCCCCCCC(=O)OCC1OC(OC2C(COC(=O)CCCCCCCC)OC(OC(=O)c3ccc4ccccc4c3)C(OC(=O)CCCCCCCC)C2OC(=O)CCCCCCCC)C(OC(=O)CCCCCCCC)C(OC(=O)CCCCCCCC)C1OC(=O)CCCCCCCC (mixture of isomers) : 63
CCCCCCCCC(=O)OCC1OC(OC2C(COC(=O)CCCCCCCC)OC(OC(C)=O)C(OC(=O)CCCCCCCC)C2OC(=O)CCCCCCCC)C(OC(=O)CCCCCCCC)C(OC(=O)CCCCCCCC)C1OC(=O)CCCCCCCC (mixture of isomers) [Ex 1.5] : 50

**Q:** Value lookup for FDT; key = CCCCCCCCC(=O)OCC1OC(OC2C(COC(=O)CCCCCCCC)OC(OC(=O)c3ccccc3)C(OC(=O)CCCCCCCC)C2OC(=O)CCCCCCCC)C(OC(=O)CCCCCCCC)C(OC(=O)CCCCCCCC)C1OC(=O)CCCCCCCC (mixture of isomers) [Ex 1.1]
**A:** 64

###

Test: Gelling of water-immiscible cosmetic liquids in 96 well glass micro-titre plate
Format: physicochemical
Set-up: key: gel; g4: gel after overnight (18 hrs) storage at 4° C.; g22: gel after overnight (18 hrs) storage at 22° C.; sg: soft gel; sg22: soft gel after overnight (18 hrs) storage at 22° C.; solution; *: the test at 4° C. was not carried out
Settings: 5% cellobiose ester in Polydecene
valueKind: gelling of Polydecene

CCCCCCCCCCCCCCCC(=O)OC1OC(COC(=O)CCCCCCCCC)C(OC2OC(COC(=O)CCCCCCCCC)C(OC(=O)CCCCCCCCC)C(OC(=O)CCCCCCCCC)C2OC(=O)CCCCCCCCC)C(OC(=O)CCCCCCCCC)C1OC(=O)CCCCCCCCC (mixture of isomers) [Ex 2.12] : gel
CCCCCCCCC(=O)OCC1OC(OC2C(COC(=O)CCCCCCCC)OC(OC(=O)CCC)C(OC(=O)CCCCCCCC)C2OC(=O)CCCCCCCC)C(OC(=O)CCCCCCCC)C(OC(=O)CCCCCCCC)C1OC(=O)CCCCCCCC (mixture of isomers) [Ex 1.18] : gel

###

FDT values, listed per item
Experiment: DSC of gels: fibre dissolution temperature (FDT) and solubility of structurant
Format: physicochemical
Conditions: gel heated at 5 K/min in DSC; peak temperature of the highest peak
Report only the number, with the unit °C understood.

CCCCCCCCC(=O)OCC1OC(OC2C(COC(=O)CCCCCCCC)OC(OC(=O)c3ccccc3)C(OC(=O)CCCCCCCC)C2OC(=O)CCCCCCCC)C(OC(=O)CCCCCCCC)C(OC(=O)CCCCCCCC)C1OC(=O)CCCCCCCC (mixture of isomers) [Ex 1.2] : 67

--- query ---
**Q:** Value lookup for FDT; key = CCCCCCCCC(=O)OCC1OC(OC2C(COC(=O)CCCCCCCC)OC(OC(=O)CCCCCCCC)C(OC(=O)CCCCCCCC)C2OC(=O)CCCCCCCC)C(OC(=O)CCCCCCCC)C(OC(=O)CCCCCCCC)C1OC(=O)CCCCCCCC (mixture of isomers) [REF 3, reference compound]
**A:** 47

###

Assay: Gelling of water-immiscible cosmetic liquids in 96 well glass micro-titre plate
Format: physicochemical
Parameters: key: gel; g4: gel after overnight (18 hrs) storage at 4° C.; g22: gel after overnight (18 hrs) storage at 22° C.; sg: soft gel; sg22: soft gel after overnight (18 hrs) storage at 22° C.; solution; *: the test at 4° C. was not carried out
Details: 10% cellobiose ester in ISA; 150° C. 2.5 hours, cooled to ambient
Experimental: In this Example, various samples of esterified cellobiose prepared as in Example 1 or 2 above, were used to gel water-immiscible cosmetic liquids, in accordance with the procedure given below, in which a large number of gels can be prepared simultaneously. The samples were tested in a 96 well (8×12 rows) glass micro-titre plate. […] The contents of the wells were assessed at the end of the cooling period, by visual inspection and by poking the contents of each well with a micro-spatula. […]
valueKind: gelling of ISA

CCCCCCCCCC(=O)OCC1OC(OC2C(COC(=O)CCCCCCCCC)OC(OC(=O)c3ccc4ccccc4c3)C(OC(=O)CCCCCCCCC)C2OC(=O)CCCCCCCCC)C(OC(=O)CCCCCCCCC)C(OC(=O)CCCCCCCCC)C1OC(=O)CCCCCCCCC (mixture of isomers) : gel
CCCCCCCCCCCCCCCC(=O)OC1OC(COC(=O)CCCCCCCCC)C(OC2OC(COC(=O)CCCCCCCCC)C(OC(=O)CCCCCCCCC)C(OC(=O)CCCCCCCCC)C2OC(=O)CCCCCCCCC)C(OC(=O)CCCCCCCCC)C1OC(=O)CCCCCCCCC (mixture of isomers) [Ex 2.13] : gel
CCCCCCCCCC(=O)OCC1OC(OC2C(COC(=O)CCCCCCCCC)OC(OC(=O)c3ccccc3)C(OC(=O)CCCCCCCCC)C2OC(=O)CCCCCCCCC)C(OC(=O)CCCCCCCCC)C(OC(=O)CCCCCCCCC)C1OC(=O)CCCCCCCCC (mixture of isomers) [Ex 2.1] : gel
